Tested on: 454973-116-R2-J3-PDC spheroids, percent test/control viability;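 note: spheroids exposed to compounds for 7 days before readout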
Assay: Anticancer human tumor 454973-116-R2-J3-PDC patient-derived pancreatic carcinoma cell line growth inhibition [CLK]
Details: second compound 10 µM; first compound 0.3 µM; active compounds read low; spheroids with HUVEC and MSC
Overview of recorded viability, T/C for various compounds
Respond with the bare value in %.

Recorded results for 2 compounds are shown here.
C=CC(=O)Nc1cc(Nc2nccc(-c3cn(C)c4ccccc34)n2)c(OC)cc1N(C)CCN(C)C + CNC(=O)c1ccc(Nc2nc(OC3CCCC3)c3c(-c4ccc5nc(C)oc5c4)c[nH]c3n2)c(OC)c1	20.4
NC(=O)C(=Cn1cnc(-c2cc(C(F)(F)F)cc(C(F)(F)F)c2)n1)c1cncnc1 + CN1CCN(c2cc(C(=O)Nc3cc4cc(-c5cnn(C)c5)ccc4cn3)ccn2)CC1	0.2

Query: Data request, read-out viability, T/C, for C=CC(=O)Nc1cc(Nc2nccc(-c3cn(C)c4ccccc34)n2)c(OC)cc1N(C)CCN(C)C + CN1CCN(c2cc(C(=O)Nc3cc4cc(-c5cnn(C)c5)ccc4cn3)ccn2)CC1
Result: 2.07

Data provenance: PubChem BioAssay AID2060618
